Test: Permeability across basolateral side at pH 6.5 to apical side at pH 7.4 in human Caco2 cells assessed as compound recovery at 10 uM
Assay type: ADME, cell-based
Details: caco-2, pH 6.5, 10 µM
Overview of recorded Drug recovery for various molecules
The figure you give is taken to be in %; do not add the unit.

Completed entries (count: 3):
Prompt: Please give measured Drug recovery of the following entry: CNC(=C[N+](=O)[O-])NCCSCc1ccc(CN(C)C)o1
Response: 85

Prompt: Write down Drug recovery measured for item CC(C)NCC(O)COc1cccc2ccccc12 (centres undefined)
Response: 80

Prompt: Fill in Drug recovery for record CC(CCc1ccccc1)NCC(O)c1ccc(O)c(C(N)=O)c1 (centres undefined)
Response: 72

Further cases:
Prompt: Entry O=C(O)c1cc2ccc(N(Cc3ccccc3)Cc3ccccc3)cc2oc1=O needs its Drug recovery filled in; supply it.
Response: 55

###

Molecular target: Monocarboxylate transporter 1 (Rattus norvegicus, UniProt P53987)
Sequence (P53987 whole entry): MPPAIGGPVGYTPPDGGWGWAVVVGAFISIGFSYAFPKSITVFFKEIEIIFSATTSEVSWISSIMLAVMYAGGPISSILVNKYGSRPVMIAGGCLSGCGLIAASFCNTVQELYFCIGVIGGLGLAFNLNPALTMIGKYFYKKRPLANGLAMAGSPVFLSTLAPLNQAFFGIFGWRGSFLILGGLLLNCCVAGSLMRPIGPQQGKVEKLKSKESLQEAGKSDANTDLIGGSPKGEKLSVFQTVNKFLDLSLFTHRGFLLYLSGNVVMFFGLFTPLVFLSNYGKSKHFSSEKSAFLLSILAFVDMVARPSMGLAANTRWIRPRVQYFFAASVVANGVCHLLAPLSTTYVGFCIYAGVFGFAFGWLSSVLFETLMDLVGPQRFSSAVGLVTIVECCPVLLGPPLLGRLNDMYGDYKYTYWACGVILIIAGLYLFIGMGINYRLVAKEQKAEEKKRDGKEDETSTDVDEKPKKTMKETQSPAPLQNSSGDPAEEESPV
Assay: Inhibition of MCT1 in rat brain endothelial 4 cells assessed as L-[14C]-Lactate Uptake after 15 mins by scintillation spectrometric analysis
Assay type: cell-based
property-measured: pIC50
Interpret pIC50 as the negative base-10 log of the concentration measured in mol/L.

Known pIC50 results, listed for orientation:
Prompt: Please give the documented pIC50 of O=C(O)c1cc2ccc(N3CCCC3)cc2oc1=O
Response: 6.42

Prompt: Give me measured pIC50, please, for this molecule: CCCN(CCC)c1ccc2cc(C(=O)O)c(=O)oc2c1
Response: 6.35

Prompt: Indicate the recorded pIC50 value for this molecule: C=CCN(CC=C)c1ccc2cc(C(=O)O)c(=O)oc2c1
Response: 6.77

Prompt: Fill in pIC50 for record O=C(O)c1cc2ccc(N(Cc3ccccc3)Cc3ccccc3)cc2oc1=O
Response: 7.05

Moving on to another molecule below.
Prompt: Respond only with pIC50 recorded for C#CCN(CC#C)c1ccc2cc(C(=O)O)c(=O)oc2c1
Response: 6.68
